# System: MG-63 (osteosarcoma) cells
# protocol-summary: MTT cell growth inhibition, solid tumor cells
# Type: cell-based
# experimental-setup: Homo sapiens; MG-63, 72 h, MTT; read-out: IC50
# Experimental: […] 6000 well-growing human solid tumor cells were obtained and inoculated into wells of a 96-well cell culture plate. […] Then the viable cell concentration was determined by the MTT method.
property-name: IC50 (mg/L)

compound	property-name	reported-measurement
COc1ccc2cc1Oc1ccc(cc1)C[C@H]1c3cc(c(OC)cc3CCN1C)Oc1c(OC(=O)c3c(F)cccc3Cl)c(OC)cc3c1[C@H](C2)N(C)CC3	IC50	2.4

a = COc1ccc2cc1Oc1ccc(cc1)C[C@H]1c3cc(c(OC)cc3CCN1C)Oc1c(OCC(O)CNCC3CC3)c(OC)cc3c1[C@H](C2)N(C)CC3 (stereo partly drawn)
b = COc1ccc2cc1Oc1ccc(cc1)C[C@H]1c3cc(c(OC)cc3CCN1C)Oc1c(OS(=O)(=O)c3ccc(C)cc3)c(OC)cc3c1[C@H](C2)N(C)CC3
### Prompt Lab note: check whether a or b shows the higher recorded IC50. Mark your answer with the label of the selected entry.
### Response b
(b: 3.18 mg/L, a: 0.96 mg/L)

----------
# Test system: K562/ADR (K562adr, drug-resistant chronic myeloid leukemia) cells
# protocol-summary: MTT cell growth inhibition, leukemia cells
# Format: cell-based
# experimental-setup: Homo sapiens; K562/ADR, 72 h, MTT; read-out: IC50
property-name: IC50 (µg/mL)

Consider the following illustrative entries.
compound	value-units	IC50
C=CCOc1c(OC)cc2c3c1Oc1cc4c(cc1OC)CCN(C)[C@H]4Cc1ccc(cc1)Oc1cc(ccc1OC)C[C@@H]3N(C)CC2	µg/mL	0.38
COc1ccc2cc1Oc1ccc(cc1)C[C@H]1c3cc(c(OC)cc3CCN1C)Oc1c(OS(=O)(=O)c3ccccc3)c(OC)cc3c1[C@H](C2)N(C)CC3	µg/mL	0.42
COc1ccc2cc1Oc1ccc(cc1)C[C@H]1c3cc(c(OC)cc3CCN1C)Oc1c(OC(=O)c3ccc(N(C)C)cc3)c(OC)cc3c1[C@H](C2)N(C)CC3	µg/mL	0.08

1 = COc1ccc2cc1Oc1ccc(cc1)C[C@H]1c3cc(c(OC)cc3CCN1C)Oc1c(OS(=O)(=O)c3ccc(C)cc3)c(OC)cc3c1[C@H](C2)N(C)CC3
2 = COc1ccc2cc1Oc1ccc(cc1)C[C@H]1c3cc(c(OC)cc3CCN1C)Oc1c(OCc3ccc(C(F)(F)F)cc3)c(OC)cc3c1[C@H](C2)N(C)CC3
### Prompt In terms of reported IC50, does 1 or 2 have the smaller number? Pick one and reply with its label.
### Response 1

a = COc1ccc2cc1Oc1ccc(cc1)C[C@H]1c3cc(c(OC)cc3CCN1C)Oc1c(OC(=O)C3CC3)c(OC)cc3c1[C@H](C2)N(C)CC3
b = COc1ccc2cc1Oc1ccc(cc1)C[C@H]1c3cc(c(OC)cc3CCN1C)Oc1c(OCC(O)CN3CCCC(C)C3)c(OC)cc3c1[C@H](C2)N(C)CC3 (stereo partly drawn)
### Prompt Could you point out whether the larger IC50 belongs to a or to b ? Give the label under which the chosen entry appears.
### Response a
(a: 0.44 µg/mL, b: 0.05 µg/mL)

a = COc1ccc2cc1Oc1ccc(cc1)C[C@H]1c3cc(c(OC)cc3CCN1C)Oc1c(OCC(O)CN3CCN(C#N)CC3)c(OC)cc3c1[C@H](C2)N(C)CC3 (stereo partly drawn)
b = C=C(C)COc1c(OC)cc2c3c1Oc1cc4c(cc1OC)CCN(C)[C@H]4Cc1ccc(cc1)Oc1cc(ccc1OC)C[C@@H]3N(C)CC2
### Prompt Could you check which of a and b has a smaller value for IC50? Answer by stating the label of the chosen item.
### Response a

Reference for the values: patent US9328122B2
